Test system: Leishmania donovani
Assay: Antimicrobial activity against wild-type Leishmania donovani AG83 promastigote assessed as inhibition of parasite growth after 72 hrs by MTS assay
Assay type: functional, organism-based
Details: AG83, 72 h
Overview of recorded pIC50 for various compounds
Worth noting: pIC50 values are minus log10 of concentrations stated in mol/L.

Guide cases for pIC50, answers given:
>  <entrySmiles>
O=c1cc(-c2ccc(OCCOCCN(CCOCCOc3ccc(-c4cc(=O)c5ccccc5o4)cc3)Cc3ccc(C(F)(F)F)cc3)cc2)oc2ccccc12

>  <quantitativeResult>
4.85

$$$$
>  <entrySmiles>
COc1cc(-c2cc(=O)c3ccccc3o2)ccc1OCCOCCN(CCOCCOc1ccc(-c2cc(=O)c3ccccc3o2)cc1OC)Cc1ccncc1

>  <quantitativeResult>
6.20

$$$$
>  <entrySmiles>
Cc1c(-c2ccc(OCCOCCOCCOCCOCCOCCOc3ccc(-c4oc5ccccc5c(=O)c4C)cc3)cc2)oc2ccccc2c1=O

>  <quantitativeResult>
5.72

$$$$

// below: pIC50 requested for another compound
-- ask Requested field: pIC50. Item: `O=c1cc(-c2cccc(OCCOCCN(CCOCCOc3cccc(-c4cc(=O)c5ccccc5o4)c3)Cc3ccncc3)c2)oc2ccccc12`
-- reply 6.72

----------
Test system: Leishmania donovani
Assay: Antimicrobial activity against SSG-resistant Leishmania donovani 39 promastigote assessed as inhibition of parasite growth after 72 hrs by MTS assay
Format: functional, organism-based
Settings: Leishmania donovani, 39, 72 h
// NB: equality with 6 µM counts as class 0; only IC50 strictly below is class 1

Use the examples below as a reference point.
>  <entrySmiles>
Cc1ccc2c(=O)cc(-c3ccc(OCCOCCOCCOCCOc4ccc(-c5cc(=O)c6ccc(C)cc6o5)cc4)cc3)oc2c1

>  <label>
class 0

$$$$
>  <entrySmiles>
O=c1cc(-c2ccc(OCCOCCN(CCOCCOc3ccc(-c4cc(=O)c5ccccc5o4)cc3)Cc3ccc([N+](=O)[O-])cc3)cc2)oc2ccccc12

>  <label>
class 0

$$$$
>  <entrySmiles>
Cc1ccc2oc(-c3ccc(OCCOCCOCCOCCOc4ccc(-c5cc(=O)c6cc(C)ccc6o5)cc4)cc3)cc(=O)c2c1

>  <label>
class 0

$$$$
>  <entrySmiles>
O=c1cc(-c2ccc(OCCOCCOCCOc3ccc(-c4cc(=O)c5ccccc5o4)cc3)cc2)oc2ccccc12

>  <label>
class 0

$$$$
>  <entrySmiles>
O=c1cc(-c2ccc(OCCN(CCOc3ccc(-c4cc(=O)c5ccccc5o4)cc3)Cc3ccncc3)cc2)oc2ccccc12

>  <label>
class 0

$$$$

-- ask Just wondering, is IC50 of `CCN(CCOCCOc1ccc(-c2cc(=O)c3ccccc3o2)cc1)CCOCCOc1ccc(-c2cc(=O)c3ccccc3o2)cc1` below 6 µM?
-- reply class 1

-- ask Does `CCc1ccc2oc(-c3ccc(OCCOCCOCCOCCOCCOCCOc4ccc(-c5cc(=O)c6cc(CC)ccc6o5)cc4)cc3)cc(=O)c2c1` have IC50 strictly under 6 µM?
-- reply class 1

-- ask Just wondering, is IC50 of `O=c1cc(-c2ccc(OCCOCCOCCOCCOCCOc3ccc(-c4cc(=O)c5ccccc5o4)cc3)cc2)oc2ccccc12` below 6 µM?
-- reply class 0

-- ask Could you please tell me whether IC50 recorded for `O=c1cc(-c2ccc(OCCOCCOCCOCCOCCOCCOc3ccc(-c4cc(=O)c5ccccc5o4)cc3)cc2)oc2ccccc12` is less than 6 µM?
-- reply class 1

-- ask Dear reviewer, please state whether `O=c1cc(-c2ccc(OCCOCCN(CCO)CCOCCOc3ccc(-c4cc(=O)c5ccccc5o4)cc3)cc2)oc2ccccc12` has IC50 strictly beneath 6 µM.
-- reply class 0

-- ask Is the reported IC50 for `O=c1cc(-c2ccc(OCCOCCN(CCOCCOc3ccc(-c4cc(=O)c5ccccc5o4)cc3)Cc3ccncn3)cc2)oc2ccccc12` strictly below 6 µM?
-- reply class 1

-- ask Determine if `O=c1c(O)c(-c2ccc(O)c(O)c2)oc2cc(O)cc(O)c12` shows IC50 strictly lower than 6 µM.
-- reply class 0

-- ask Given `CCc1ccc2oc(-c3ccc(OCCOCCOCCOCCOCCOc4ccc(-c5cc(=O)c6cc(CC)ccc6o5)cc4)cc3)cc(=O)c2c1` , is recorded IC50 strictly lower than 6 µM?
-- reply class 1

-- ask Problem: For the molecule `O=c1cc(-c2ccc(OCCOCCN(CCOCCOc3ccc(-c4cc(=O)c5ccccc5o4)cc3)Cc3ccncc3)cc2)oc2ccccc12` , is IC50 under 6 µM?
-- reply class 1

-- ask Does the reported IC50 of `Cc1ccc2c(=O)cc(-c3ccc(OCCOCCOCCOCCOCCOc4ccc(-c5cc(=O)c6ccc(C)cc6o5)cc4)cc3)oc2c1` stay below 6 µM?
-- reply class 0

----------
Test: Therapeutic index, ratio of IC50 for mouse PEM cells to IC50 for wild-type Leishmania donovani AG83 promastigote
Type: cell-based
Conditions: read-out: Ratio IC50
The entries below are paired with their reported selectivity ratio.
Lab note: record the figure alone, no unit after it.

-- ask Which value of selectivity ratio has been reported for `C[C@@H]1[C@H](O)[C@@H](C)/C=C/C=C/C=C/C=C/C=C/C=C/C=C/[C@H](O[C@@H]2O[C@H](C)[C@@H](O)[C@H](N)[C@@H]2O)C[C@@H]2O[C@](O)(C[C@@H](O)C[C@@H](O)[C@H](O)CC[C@@H](O)C[C@@H](O)CC(=O)O[C@H]1C)C[C@H](O)[C@H]2C(=O)O` in the records?
-- reply 82.2

-- ask Consider the molecule shown here: `O=c1cc(-c2ccc(O)c(O)c2)oc2cc(O)cc(O)c12` What is its recorded selectivity ratio?
-- reply 0.7

-- ask Dear colleague, I am looking for the recorded selectivity ratio of the following molecule: `N=C(N)c1ccc(OCCCCCOc2ccc(C(=N)N)cc2)cc1`
-- reply 2.2

----------
Below, each of the compounds is paired with its reported IC50 value.
Test system: Leishmania donovani
Assay: Antimicrobial activity against SSG-resistant Leishmania donovani 39 promastigote assessed as inhibition of parasite growth after 72 hrs by MTS assay
Format: functional, organism-based
Conditions: Leishmania donovani, 39, 72 h
Give the quantity in µM, number only.

Solved entries (count: 3):
>  <entrySmiles>
N=C(N)c1ccc(OCCCCCOc2ccc(C(=N)N)cc2)cc1

>  <IC50 [µM]>
5.3

$$$$
>  <entrySmiles>
O=c1cc(-c2ccc(OCCOCCOCCOCCOCCOCCOCCOCCOc3ccc(-c4cc(=O)c5ccccc5o4)cc3)cc2)oc2ccccc12

>  <IC50 [µM]>
4.6

$$$$
>  <entrySmiles>
O=c1cc(-c2ccc(OCCOCCOCCOc3ccc(-c4cc(=O)c5c(O)cc(O)cc5o4)cc3)cc2)oc2cc(O)cc(O)c12

>  <IC50 [µM]>
2.7

$$$$

-- ask # lookup: IC50 of `COc1c(-c2ccc(OCCOCCN(CCOCCOc3ccc(-c4oc5ccccc5c(=O)c4OC)cc3)Cc3ccncc3)cc2)oc2ccccc2c1=O`
-- reply 0.98

----------
System: Leishmania donovani
Test: Antimicrobial activity against wild-type Leishmania donovani AG83 promastigote assessed as inhibition of parasite growth after 72 hrs by MTS assay
Type: functional, organism-based
Details: AG83, 72 h
Known pIC50 of a selection of compounds
// scale note: pIC50 = -log10(conc_M); give the bare number

Below are worked cases with known answers.
>  <compound>
Cc1c(-c2ccc(OCCOCCOCCOCCOc3ccc(-c4oc5ccccc5c(=O)c4C)cc3)cc2)oc2ccccc2c1=O

>  <targetOrTestSystem>
Leishmania donovani

>  <quantitativeResult>
5.16

$$$$
>  <compound>
N=C(N)c1ccc(OCCCCCOc2ccc(C(=N)N)cc2)cc1 [PENTAMIDINE]

>  <targetOrTestSystem>
Leishmania donovani

>  <quantitativeResult>
4.86

$$$$

Here is another compound to look at.
-- ask Consider the compound `CCc1ccc2oc(-c3ccc(OCCOCCOCCOCCOCCOCCOc4ccc(-c5cc(=O)c6cc(CC)ccc6o5)cc4)cc3)cc(=O)c2c1` and give its measured pIC50.
-- reply 5.51

----------
Test system: Leishmania donovani
Test: Antimicrobial activity against SSG-resistant Leishmania donovani 39 promastigote assessed as inhibition of parasite growth after 72 hrs by MTS assay
Assay type: functional, organism-based
Settings: Leishmania donovani, 39, 72 h
metric: IC50 (µM)
# number only, unit µM dropped from output

Sample records with IC50:
>  <entrySmiles>
O=c1cc(-c2ccc(OCCOCCOCCOCCOCCOCCOc3ccc(-c4cc(=O)c5ccc(F)cc5o4)cc3)cc2)oc2cc(F)ccc12

>  <targetOrTestSystem>
Leishmania donovani

>  <unitString>
µM

>  <IC50>
4.2

$$$$
>  <entrySmiles>
O=c1cc(-c2ccc(OCCOCCOCCOCCOCCOCCOc3ccc(-c4cc(=O)c5c(O)cc(O)cc5o4)cc3)cc2)oc2cc(O)cc(O)c12

>  <targetOrTestSystem>
Leishmania donovani

>  <unitString>
µM

>  <IC50>
1.4

$$$$
>  <entrySmiles>
CS(=O)(=O)N(CCOCCOc1ccc(-c2cc(=O)c3ccccc3o2)cc1)CCOCCOc1ccc(-c2cc(=O)c3ccccc3o2)cc1

>  <targetOrTestSystem>
Leishmania donovani

>  <unitString>
µM

>  <IC50>
0.9

$$$$
>  <entrySmiles>
NC[C@@H]1O[C@H](O[C@H]2[C@@H](O)[C@H](O[C@@H]3[C@@H](O)[C@H](N)C[C@H](N)[C@H]3O[C@H]3O[C@H](CO)[C@@H](O)[C@H](O)[C@H]3N)O[C@@H]2CO)[C@H](N)[C@@H](O)[C@@H]1O

>  <targetOrTestSystem>
Leishmania donovani

>  <unitString>
µM

>  <IC50>
24.5

$$$$

For the next question, use this molecule.
-- ask Recorded IC50 for `CCOC(=O)CCN(CCOCCOc1ccc(-c2cc(=O)c3ccccc3o2)cc1)CCOCCOc1ccc(-c2cc(=O)c3ccccc3o2)cc1` , please?
-- reply 6.6
